These compounds were tested on 5-HT2A receptor (Homo sapiens); Ki is the recorded read-out.

Task: I would be grateful if you could share the reported Ki for CCC1CN2CCNCc3ccc(C(=O)NCC(F)F)c1c32 (single isomer, unassigned) [2nd eluting enantiomer in example 1.5] .
Output: 6.58 µM

Read the next record carefully.
Task: I would be grateful if you could share the reported Ki for O=C(NCC(F)F)c1ccc2c3c1C1(CCC1)CN3CCNC2 .
Output: 6.75 µM

###

These compounds were tested on 5-HT2C receptor (Homo sapiens, UniProt P28335); pKi is the recorded read-out.
Please keep in mind that pKi is minus log10 of the molar concentration; only the number is needed.

Task: I would be grateful if you could share the reported pKi for CCC1CN2CCNCc3ccc(C(=O)NCC(F)F)c1c32 (single isomer, unassigned) [2nd eluting enantiomer in example 1.5] .
Output: 7.71

Read the next record carefully.
Task: I would be grateful if you could share the reported pKi for O=C(NCC(F)F)c1ccc2c3c1C1(CCC1)CN3CCNC2 [Compound 7] .
Output: 7.44

###

molecular target: 5-HT2A receptor (Homo sapiens, UniProt P28223); test: IP accumulation assay in HEK293 cells expressing recombinant 5-HT2 receptors; conditions: 2 h at 37° C.
Sequence (P28223 whole entry): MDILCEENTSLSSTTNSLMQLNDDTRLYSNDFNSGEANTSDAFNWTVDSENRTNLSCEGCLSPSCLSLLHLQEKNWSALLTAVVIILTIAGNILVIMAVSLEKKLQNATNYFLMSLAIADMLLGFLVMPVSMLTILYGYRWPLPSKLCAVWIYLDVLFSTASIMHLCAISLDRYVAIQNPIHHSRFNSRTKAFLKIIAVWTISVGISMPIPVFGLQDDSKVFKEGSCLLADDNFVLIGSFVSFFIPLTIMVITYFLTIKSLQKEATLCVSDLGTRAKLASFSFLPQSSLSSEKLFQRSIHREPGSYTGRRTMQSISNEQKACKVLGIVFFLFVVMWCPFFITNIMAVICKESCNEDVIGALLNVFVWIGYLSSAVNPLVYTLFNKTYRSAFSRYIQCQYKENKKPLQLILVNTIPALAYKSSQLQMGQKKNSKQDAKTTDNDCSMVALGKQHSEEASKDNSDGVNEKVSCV
EXPERIMENTAL_READOUT: EC50 (µM)
Give the quantity in µM, number only.

Task: I would be grateful if you could share the reported EC50 for O=C(NCC(F)F)c1ccc2c3c1C1(CCC1)CN3CCNC2 .
Output: 0.16

###

Molecular target: 5-HT2C receptor (Homo sapiens, UniProt P28335)
Sequence (P28335 33-458): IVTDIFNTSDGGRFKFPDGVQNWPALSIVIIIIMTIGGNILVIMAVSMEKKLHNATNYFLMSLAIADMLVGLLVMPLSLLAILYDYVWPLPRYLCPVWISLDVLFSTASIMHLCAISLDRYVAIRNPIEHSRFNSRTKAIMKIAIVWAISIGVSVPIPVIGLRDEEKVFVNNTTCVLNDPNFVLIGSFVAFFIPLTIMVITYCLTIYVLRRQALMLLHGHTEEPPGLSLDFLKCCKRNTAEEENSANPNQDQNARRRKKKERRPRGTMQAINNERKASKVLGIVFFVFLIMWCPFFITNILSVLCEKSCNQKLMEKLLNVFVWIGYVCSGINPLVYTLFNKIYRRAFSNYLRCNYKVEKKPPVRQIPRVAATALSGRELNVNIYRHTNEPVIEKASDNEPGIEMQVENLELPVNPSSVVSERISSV
Assay: IP accumulation assay in HEK293 cells expressing recombinant 5-HT2 receptors
Conditions: 2 h at 37° C.
EXPERIMENTAL_READOUT: pEC50
Please keep in mind that pEC50 is minus log10 of the molar concentration; only the number is needed.

Task: I would be grateful if you could share the reported pEC50 for O=C(NCC(F)F)c1ccc2c3c1C1(CCC1)CN3CCNC2 [Compound 7] .
Output: 7.75

New cases:
Task: I would be grateful if you could share the reported pEC50 for CCC1CN2CCNCc3ccc(C(=O)NCC(F)F)c1c32 (single isomer, unassigned) [2nd eluting enantiomer in example 1.5] .
Output: 8.15

Task: Okay, and CCC1CN2CCNCc3ccc(C(=O)NCC(F)F)c1c32 (single isomer, unassigned) [1st eluting enantiomer in example 1.5] ?
Output: 4.82

Task: Okay, and CC1(C)CN2CCNCc3ccc(C(=O)NCC(F)F)c1c32 [Compound 6] ?
Output: 6.71
